System: UACC-62
Assay: NCI tumour cell line growth inhibition, 48 h
Activity calls are given as the source filed them. No stated cut-off is given here; in the data, active = GI50 up to about 1.1 µM and inactive = higher.
Give your call using only these classes: Yes for active, No for inactive

Lookup: Hi team, can someone confirm the assay call for `C=Cc1ccccc1C1(O)C=CC(OC)(OC)C=C1` ?
Found: No

Lookup: Hi team, can someone confirm the assay call for CC1C2(C)OC(=N)C(C#N)(C(c3cccc([N+](=O)[O-])c3)O2)C1(C#N)C#N (configuration not stated) ?
Found: No

Lookup: Hi team, can someone confirm the assay call for `Cc1[nH]n(-c2nc3c(c(=O)[nH]2)CCCC3)c(=O)c1CCO` ?
Found: No

Lookup: Hi team, can someone confirm the assay call for `CS(=O)(=O)c1nc(Cl)c(Cl)c(C#N)c1Cl` ?
Found: No

Lookup: Hi team, can someone confirm the assay call for `O=C(CNc1ccccn1)Nn1cnc2ccc(S(=O)(=O)Nc3ccccn3)cc2c1=O` ?
Found: No

Lookup: Hi team, can someone confirm the assay call for O=C1NCC(CSc2nc3cc(C4CCCc5c4[nH]c4ccccc54)ccc3o2)N1 (configuration not stated) ?
Found: No

Lookup: Hi team, can someone confirm the assay call for C=C(Cl)/C(=C\Cl)CCC(Br)C(C)C (configuration not stated) ?
Found: No

Lookup: Hi team, can someone confirm the assay call for `CN(C)c1ccc(/C=C2\C[C@H]3[C@@H]4CCc5cc(O)ccc5[C@H]4CC[C@]3(C)C2=O)cc1` ?
Found: No

Lookup: Hi team, can someone confirm the assay call for `COC(=O)[C@]12CC[C@H]3CN(C(=O)OCc4ccccc4)[C@H]([C@H]31)[C@H](C(=O)OCC[Si](C)(C)C)N2S(=O)(=O)c1ccc(C)cc1` ?
Found: No

Lookup: Hi team, can someone confirm the assay call for `O=S(=O)(O)c1cc(/N=N/c2c(O)ccc3ccccc23)ccc1/C=C/c1ccc(/N=N/c2c(O)ccc3ccccc23)cc1S(=O)(=O)O` ?
Found: No

Lookup: Hi team, can someone confirm the assay call for COC12C=C(C)C(CC1)CC2C(=O)O (configuration not stated) ?
Found: No

Lookup: Hi team, can someone confirm the assay call for CN1C(=O)c2ccccc2OC12C=Cc1ccc(O)cc1O2 (configuration not stated) ?
Found: No

Lookup: Hi team, can someone confirm the assay call for CCCCCCCCCCCCCCCC(=O)OCC1OC(N2C(=O)/C(=N\NC(N)=S)c3ccc([N+](=O)[O-])cc32)C(OC(C)=O)C1OC(C)=O (configuration not stated) ?
Found: No

Lookup: Hi team, can someone confirm the assay call for `COc1ccccc1N=C(S)Nc1ccccn1` ?
Found: No

Lookup: Hi team, can someone confirm the assay call for `N#Cc1c(-c2ccc(F)cc2)c(-c2ccc(F)cc2)nn(CCO)c1=O` ?
Found: Yes

Lookup: Hi team, can someone confirm the assay call for `CCCCC(=O)OC[n+]1ccc2c(C)c3[nH]c4ccccc4c3c(C)c2c1` ?
Found: No

Lookup: Hi team, can someone confirm the assay call for C=C1CC2(CCCC3(CC(=C)C(=O)O3)C2(C)C)OC1=O (configuration not stated) ?
Found: No

Lookup: Hi team, can someone confirm the assay call for `N#Cc1nc(-c2ccco2)oc1N` ?
Found: No

Lookup: Hi team, can someone confirm the assay call for `O=c1nc(-c2ccccc2)c2c3c(cccn13)CCC2` ?
Found: No

Lookup: Hi team, can someone confirm the assay call for `CCOC(=O)CCSS(=O)(=O)c1ccccc1` ?
Found: No

Lookup: Hi team, can someone confirm the assay call for `O=C1C=C2CC[C@H]3[C@@H]4CC[C@H](Oc5c6ccccc6nc6ccccc56)[C@H]4CC[C@@H]3[C@H]2CC1` ?
Found: No

Lookup: Hi team, can someone confirm the assay call for CC1(C)C(=O)C(O)=CC2C1=CCC1C2(C)C(=O)CC2(C)C(C(C)(O)C(=O)CC(O)C(C)(C)O)C(O)CC12C (configuration not stated) ?
Found: No
